Experiment: Cytotoxicity assay (Cell Counting Kit-8) in Vero cells
Experimental context: African green monkey

{"Compound": "CO/C1=C\\C(C)=C\\[C@@H](C)[C@@H](O)[C@@H](C)C/C(C)=C/C=C/[C@H](OC)[C@@H]([C@@H](C)[C@@H](O)[C@H](C)[C@@]2(O)C[C@@H](O)[C@H](C)[C@@H](C(C)C)O2)OC1=O [bafilomycin A1, reference compound]", "viability at 48 h, 0.15 µM": "~80%"}

----------
# key: entry, value: CC50 at 48 h
Experiment: Cytotoxicity assay (Cell Counting Kit-8) in Vero cells
Experimental context: African green monkey

{"Molecule": "COc1cc2c(O[C@@H]3O[C@H](CO)[C@@H](O)[C@H](O)[C@H]3O)c3c(c(-c4ccc5c(c4)OCO5)c2cc1OC)C(=O)OC3 [Cleistanthin B 8, diphyllin-4-β-D-glucopyranoside, reference compound]", "CC50 at 48 h": "> 100 µM"}
{"Molecule": "COc1cc2c(O)c3c(c(-c4ccc5c(c4)OCO5)c2cc1OC)C(=O)OC3", "CC50 at 48 h": "> 100 µM"}

----------
Experiment: Cytotoxicity assay (Cell Counting Kit-8) in Vero cells
Experimental context: African green monkey
# key: entry, value: CC50 at 144 h
Reported property: CC50 at 144 h

{"Molecule": "COc1cc2c(O)c3c(c(-c4ccc5c(c4)OCO5)c2cc1OC)C(=O)OC3", "Reported property": "CC50 at 144 h", "Observed": "18.2 µM"}
{"Molecule": "COc1cc2c(O[C@@H]3O[C@H](CO)[C@@H](O)[C@H](O)[C@H]3O)c3c(c(-c4ccc5c(c4)OCO5)c2cc1OC)C(=O)OC3 [Cleistanthin B 8, diphyllin-4-β-D-glucopyranoside, reference compound]", "Reported property": "CC50 at 144 h", "Observed": "80.7 µM"}

----------
Test system: HSV-1, strain MacIntyre
Experiment: microbe, parasite or virus in culture
Experimental context: Human alphaherpesvirus 1, Vero
pEC50: −log10 of the molar value.
Reported property: pEC50

{"Compound": "COc1cc2c(O)c3c(c(-c4ccc5c(c4)OCO5)c2cc1OC)C(=O)OC3 [Diphyllin 1]", "Observed": 6.23}

----------
Experiment: Cytotoxicity assay (Cell Counting Kit-8) in Vero cells
Experimental context: African green monkey
Reported property: CC50 at 72 h

{"Compound": "COc1cc2c(O[C@@H]3O[C@H](CO)[C@@H](O)[C@H](O)[C@H]3O)c3c(c(-c4ccc5c(c4)OCO5)c2cc1OC)C(=O)OC3 [Cleistanthin B 8, diphyllin-4-β-D-glucopyranoside, reference compound]", "Observed": "> 100 µM"}
{"Compound": "COc1cc2c(O)c3c(c(-c4ccc5c(c4)OCO5)c2cc1OC)C(=O)OC3", "Observed": "> 100 µM"}

----------
Test system: RABV, strain CVS-11
Experiment: microbe, parasite or virus in culture
Experimental context: Lyssavirus rabies, BHK-21, 72 h
pEC50: −log10 of the molar value.
Reported property: pEC50

{"Compound": "COc1cc2c(O)c3c(c(-c4ccc5c(c4)OCO5)c2cc1OC)C(=O)OC3 [Diphyllin 1]", "Observed": 5.20}

----------
Experiment: Cytotoxicity assay (Cell Counting Kit-8) in HBCA cells
Experimental context: human, human brain cortical astrocytes (HBCA)

{"Molecule": "COc1cc2c(O[C@@H]3O[C@H](CO)[C@@H](O)[C@H](O)[C@H]3O)c3c(c(-c4ccc5c(c4)OCO5)c2cc1OC)C(=O)OC3 [Cleistanthin B 8, diphyllin-4-β-D-glucopyranoside, reference compound]", "CC50 at 48 h / µM": 2.08}
{"Molecule": "COc1cc2c(O)c3c(c(-c4ccc5c(c4)OCO5)c2cc1OC)C(=O)OC3 [Diphyllin 1]", "CC50 at 48 h / µM": 3.39}
